test: inhibition of PEG-3 promoter activity – cell-based, HeLa, luciferase luminescence, primary screen (AID 588405); details: HeLa PEG-Prom luciferase reporter, overnight, at 20 µM
The campaign covered roughly 360,000 compounds. About 6,200 (1.7%) were called active.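 How the source made its calls: active means inhibition of at least 50% at 20 µM; inactive means the rest.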 Many of the other results were omitted from the sample, so actives are more common in it than they were.
Just give me one of these, please: active, inactive

Below are worked cases with known answers.
• O=C(OCCN1CCOCC1)C1(c2ccccc2)CCCC1 = inactive
• COc1cc(OC)cc(C2(C#N)CCN(C)CC2)c1 = inactive
• CC(C)N(CC#CCC1(O)c2ccccc2-c2ccccc21)C(C)C = inactive
• CC1([N+](=O)[O-])COP(=O)(Nc2ccc(F)cc2)OC1 (stereo unspecified) = inactive
• CCCCCCCCCCCCn1ccc(=N)cc1 = active
• CC1CC=CCC12C(=O)NC(=S)NC2=O (stereo unspecified) = inactive
• CC1(C)Cc2c(C#N)c(N3CCNCC3)nc(-c3ccco3)c2CS1 = active
• O=C(NC(=S)N1C[C@H]2C[C@H](C1)c1cccc(=O)n1C2)c1ccc(F)cc1 = inactive
• c1ccc(N2Cc3ccccc3-n3nncc3C2)nc1 = inactive
• Fc1ccc(C2N3CCCN23)cc1 (stereo unspecified) = inactive

Prompt line: In this assay, the call recorded for c1cc2c(cc1C1OCC3C(c4ccc5c(c4)OCO5)OCC13)OCO2 (stereo unspecified) was what?
Response line: inactive

Prompt line: Please indicate how the test categorized CC(Cc1ccccc1)NCCC(c1ccccc1)c1ccccc1 (stereo unspecified) .
Response line: active

Prompt line: Which outcome was assigned to `CCCCCn1c(=O)c(C(=O)NCc2ccccn2)c(O)c2ccccc21` in this test?
Response line: inactive

Prompt line: So what was the verdict on `Nc1ccc([N+](=O)[O-])cc1` in this test?
Response line: inactive

Prompt line: Hey, what did the test say about `CCN1CCN(Cc2cc(OC)c3c(c2)OCO3)CC1` ?
Response line: inactive

Prompt line: Give the logged outcome of this assay for the following compound: `CN(C)c1nc(N(C)C)nc(N(C#N)CCCl)n1`
Response line: inactive
